System: Leptosphaeria nodorum (LEPTNO)
protocol: In vitro fungitoxicity of hydrazones with and without copper towards Leptosphaeria nodorum (Example 26)
Assay type: cell-based
setup.conditions: copper-plus medium (CuCl2 10 μM); test compound Concn. 0.05 μg/mL; 72 h at 25° C.
Assign LEPTNO % Inhn. Plus Copper Observed to each entry below.
State the answer as a number, implicitly in %.

Returns the measured LEPTNO % Inhn. Plus Copper Observed for the input compound. Input: C/C(=N\NC(=O)c1ccccc1Cl)c1cc(Cl)ccc1O [Example 508]
97.1

Also check C/C(=N\NC(=O)c1ccc(Cl)cc1)c1cc(C)ccc1O [Example 317]
97.9

Also check C/C(=N\NC(=O)c1cccc(C)c1O)c1cc(Cl)cc(Cl)c1O [Example 565]
97.4

Also check O=C(N/N=C/c1cc(Cl)cc(C(F)(F)F)c1O)c1ccccc1C(F)(F)F [Example 385]
94.6

Also check COc1cc(O)c(/C(C)=N/NC(=O)c2ccc(Cl)cc2)c(OC)c1 [Example 568]
94.3

Also check C/C(=N\NC(=O)c1ccc(Cl)cc1)c1cc(C(F)(F)F)ccc1O [Example 533]
97.0

Also check C/C(=N\NC(=O)c1ccccc1Br)c1ccc(Cl)cc1O [Example 462]
95.0

Also check O=C(N/N=C/c1cccc(Cl)c1O)c1cccc(F)c1 [Example 425]
97.6

Also check O=C(N/N=C/c1cc(C(F)(F)F)cc(C(F)(F)F)c1O)c1ccc(F)cc1 [Example 335]
96.8

* * *

System: Phytophthora capsici
protocol: Fungitoxicity of copper-hydrazone mixtures of different ratios towards Phytophthora capsici (Example 36, Table 12)
Assay type: cell-based
setup.conditions: Phytophthora capsici, Hydrazone without CuCl2; read-out: Hydrazone EC50
reported.endpoint: pEC50
Note: pEC50 values are expressed as the negative base-10 logarithm of concentration in M.

Hello, I am looking for reported pEC50 with Phytophthora capsici for O=C(N/N=C/c1cc(Cl)cc(Cl)c1O)c1ccccc1 . Could you help?
6.84

* * *

Assign melting point to each entry below.

Returns the measured melting point for the input compound. Input: C/C(=N\NC(=O)c1ccc(C)cc1)c1cc(C)ccc1O [Example 314]
206 to 208 °C

Also check COc1cccc(/C(C)=N/NC(=O)c2ccc(Br)cc2)c1O [Example 465]
176 to 177 °C

Also check COc1ccc(/C(C)=N/NC(=O)c2ccc(Cl)cc2)c(O)c1OC [Example 557]
230 to 235 °C

Also check Cc1ccc(C(=O)N/N=C/c2cc(Cl)cc(Cl)c2O)c(C)c1 [Example 27]
246 to 247 °C

Also check O=C(N/N=C/c1cc(C(F)(F)F)cc(C(F)(F)F)c1O)c1ccccc1C(F)(F)F [Example 341]
210 to 214 °C

Also check C/C(=N\NC(=O)c1cccc(Cl)c1)c1cc(Br)cc(Br)c1O [Example 544]
255 to 256 °C

Also check O=C(N/N=C/c1cc(Cl)cc(Br)c1O)c1cccc(F)c1 [Example 414]
209 to 215 °C

Also check O=C(N/N=C/c1cc([N+](=O)[O-])cc(Br)c1O)c1cccc(Cl)c1 [Example 201]
276 to 280 °C

Also check O=C(N/N=C/c1cc(C(F)(F)F)ccc1O)c1ccccc1 [Example 277]
214 to 217 °C

Also check C/C(=N\NC(=O)c1ccccc1)c1cc(Br)ccc1O [Example 287]
204 to 208 °C

Also check C/C(=N\NC(=O)c1ccccc1Cl)c1cc(Cl)ccc1O [Example 508]
210 to 217 °C

Also check C/C(=N\NC(=O)c1ccccc1)c1cccc([N+](=O)[O-])c1O [Example 268]
215 to 224 °C

Also check COc1ccc(O)c(C(=O)N/N=C/c2cc(Cl)cc(Cl)c2O)c1 [Example 487]
250 to 252 °C

Also check O=C(N/N=C/c1cc(C(F)(F)F)cc(C(F)(F)F)c1O)c1cccc(Cl)c1 [Example 336]
230 to 233 °C

Also check O=C(N/N=C/c1cc(Cl)cc(Cl)c1O)c1ccc(OC(F)(F)F)cc1 [Example 100]
220 to 229 °C

Also check CCOc1cccc(C(=O)N/N=C/c2cc(Cl)cc(Cl)c2O)c1 [Example 86]
207 to 209 °C

Also check C/C(=N\NC(=O)c1ccccc1Cl)c1cccc([N+](=O)[O-])c1O [Example 272]
196 to 205 °C

Also check Cc1cc(C)cc(C(=O)N(/N=C/c2cc(Cl)cc(Cl)c2O)C(C)(C)C)c1 [Example 211]
220 to 227 °C

Also check COc1ccc(/C(C)=N/NC(=O)c2ccccc2Br)c(O)c1OC [Example 561]
195 to 200 °C

* * *

Test system: Leptosphaeria nodorum (LEPTNO)
protocol: In vitro fungitoxicity of hydrazones with and without copper towards Leptosphaeria nodorum (Example 26)
Assay type: cell-based
setup.conditions: Parastagonospora nodorum, 72 h, compound 0.05 μg/mL, copper-minus medium, 72 h at 25° C.; read-out: LEPTNO % Inhn. Minus Copper Observed
reported.endpoint: inhibition of growth at 0.05 µg/mL (%)
State the answer as a number, implicitly in %.

Returns the measured inhibition of growth at 0.05 µg/mL for the input compound. Input: O=C(N/N=C/c1cc(Cl)cc(Br)c1O)c1cccc(Br)c1 [Example 163]
5.9

Also check COc1cc([N+](=O)[O-])cc(/C=N/NC(=O)c2ccccc2)c1O [Example 155]
1.9

Also check O=C(N/N=C/c1cc(Cl)cc(Cl)c1O)c1ccccc1Oc1ccccc1 [Example 90]
9.5

Also check Cc1ccc(C(=O)N/N=C/c2cc(Cl)cc(Cl)c2O)c(C)c1 [Example 27]
16.5

Also check C/C(=N\NC(=O)c1ccc(C(C)C)cc1)c1ccccc1O [Example 40]
0

* * *

Assign inhibition of growth at 0.05 µg/mL to each entry below.
Tested on: Leptosphaeria nodorum (LEPTNO)
protocol: In vitro fungitoxicity of hydrazones with and without copper towards Leptosphaeria nodorum (Example 26)
Type: cell-based
setup.conditions: Parastagonospora nodorum, 72 h, copper-minus medium; test compound Concn. 0.05 μg/mL; 72 h at 25° C.; read-out: LEPTNO % Inhn. Minus Copper Observed
State the answer as a number, implicitly in %.

Hello, I am looking for reported inhibition of growth at 0.05 µg/mL with Leptosphaeria nodorum (LEPTNO) for C/C(=N\NC(=O)c1ccccc1Cl)c1cc(Cl)ccc1O . Could you help?
9.4

Also check COc1ccc(C(=O)N/N=C(\C)c2ccc(OC)c(OC)c2O)cc1
3.8

Also check N#Cc1cccc(C(=O)N/N=C/c2cc(Cl)cc(Cl)c2O)c1
5.5

Also check COc1cc(O)c(/C(C)=N/NC(=O)c2ccc(C(F)(F)F)cc2)c(OC)c1
0

Also check O=C(N/N=C/c1c(Cl)ccc(Cl)c1O)c1cccc([N+](=O)[O-])c1
12.6

Also check COc1ccc(/C(C)=N/NC(=O)c2ccc(Br)cc2)c(O)c1
0

Also check C/C(=N\NC(=O)c1ccccc1Cl)c1cccc(Cl)c1O
0.7

Also check Cc1ccc(C(=O)N/N=C/c2ccc(Cl)cc2O)cc1
17.2

Also check Cc1ccc(C(=O)N/N=C/c2cccc(Cl)c2O)c(O)c1
10.8

Also check C/C(=N\NC(=O)c1ccc(C(F)(F)F)cc1)c1cc(Br)cc(Br)c1O
6.7

Also check O=C(N/N=C/c1cc(Br)cc(F)c1O)c1ccccc1
1.9

Also check O=C(N/N=C/c1cc(C(F)(F)F)cc(C(F)(F)F)c1O)c1cccc(Cl)c1
16.6

Also check COc1cccc(/C(C)=N/NC(=O)c2ccc(C)cc2)c1O
0

Also check Cc1ccc(C(=O)N/N=C/c2cc(Cl)cc(Cl)c2O)c(O)c1
37.2

Also check O=C(N/N=C/c1cc(C(F)(F)F)ccc1O)c1cccc([N+](=O)[O-])c1
0

Also check O=C(N/N=C/c1c(C(F)(F)F)ccc(Cl)c1O)c1cccc(F)c1
7.2

Also check O=C(N/N=C/c1c(Cl)ccc(Cl)c1O)c1ccc(Cl)cc1
3.5

Also check O=C(N/N=C/c1cc(Cl)cc(Br)c1O)c1cccc([N+](=O)[O-])c1
4.3

Also check COc1ccc(C(=O)N/N=C(\C)c2cc(Br)ccc2O)cc1
0

Also check Cc1ccc(C(=O)N/N=C/c2cc(Cl)ccc2O)c(O)c1
23.5

Also check C/C(=N\NC(=O)c1ccc(C)cc1)c1cccc(Cl)c1O
0

Also check O=C(N/N=C/c1c(C(F)(F)F)ccc(Cl)c1O)c1ccc(F)cc1
1.1

Also check Cc1cccc(C(=O)N/N=C/c2c(Cl)ccc(Cl)c2O)c1
13.8

Also check COc1cccc(/C(C)=N/NC(=O)c2cccc(C)c2)c1O
0

Also check O=C(N/N=C/c1cc(C(F)(F)F)ccc1O)c1ccccc1O
14.6

Also check C/C(=N\NC(=O)c1ccc(Br)cc1)c1cc(F)cc(F)c1O
3.1

Also check O=C(N/N=C/c1ccc(Cl)c(Cl)c1O)c1cccc(F)c1
18.6

Also check O=C(N/N=C/c1cc(Cl)ccc1O)c1cccc(F)c1
11.4

Also check Cc1cccc(C(=O)N/N=C/c2c(O)cccc2Cl)c1
5.4

Also check O=C(N/N=C(/c1cc(Cl)cc(Cl)c1O)C(F)(F)F)c1ccccc1
6.2

Also check O=C(N/N=C/c1c(Cl)ccc(Cl)c1O)c1ccccc1O
15.1

Also check O=C(N/N=C/c1c(O)cccc1Cl)c1ccccc1C(F)(F)F
0

Also check O=C(N/N=C/c1cc(Cl)cc(C(F)(F)F)c1O)c1ccc([N+](=O)[O-])cc1
20.3

Also check C/C(=N\NC(=O)c1cccc(Cl)c1)c1cccc(Cl)c1O
0

Also check O=C(N/N=C/c1cc(Cl)cc(Br)c1O)c1ccc([N+](=O)[O-])cc1
10.7

Also check COc1ccc(C(=O)N/N=C(\C)c2ccc(Cl)cc2O)cc1
7.3

Also check O=C(N/N=C/c1c(Cl)ccc(Cl)c1O)c1cccc(F)c1
13.1

Also check COc1ccc(/C(C)=N/NC(=O)c2ccc(C)cc2)c(O)c1OC
0
